- assay_system: Human Full Length PARG (Homo sapiens (Human))
- Sequence (Q86W56 whole entry): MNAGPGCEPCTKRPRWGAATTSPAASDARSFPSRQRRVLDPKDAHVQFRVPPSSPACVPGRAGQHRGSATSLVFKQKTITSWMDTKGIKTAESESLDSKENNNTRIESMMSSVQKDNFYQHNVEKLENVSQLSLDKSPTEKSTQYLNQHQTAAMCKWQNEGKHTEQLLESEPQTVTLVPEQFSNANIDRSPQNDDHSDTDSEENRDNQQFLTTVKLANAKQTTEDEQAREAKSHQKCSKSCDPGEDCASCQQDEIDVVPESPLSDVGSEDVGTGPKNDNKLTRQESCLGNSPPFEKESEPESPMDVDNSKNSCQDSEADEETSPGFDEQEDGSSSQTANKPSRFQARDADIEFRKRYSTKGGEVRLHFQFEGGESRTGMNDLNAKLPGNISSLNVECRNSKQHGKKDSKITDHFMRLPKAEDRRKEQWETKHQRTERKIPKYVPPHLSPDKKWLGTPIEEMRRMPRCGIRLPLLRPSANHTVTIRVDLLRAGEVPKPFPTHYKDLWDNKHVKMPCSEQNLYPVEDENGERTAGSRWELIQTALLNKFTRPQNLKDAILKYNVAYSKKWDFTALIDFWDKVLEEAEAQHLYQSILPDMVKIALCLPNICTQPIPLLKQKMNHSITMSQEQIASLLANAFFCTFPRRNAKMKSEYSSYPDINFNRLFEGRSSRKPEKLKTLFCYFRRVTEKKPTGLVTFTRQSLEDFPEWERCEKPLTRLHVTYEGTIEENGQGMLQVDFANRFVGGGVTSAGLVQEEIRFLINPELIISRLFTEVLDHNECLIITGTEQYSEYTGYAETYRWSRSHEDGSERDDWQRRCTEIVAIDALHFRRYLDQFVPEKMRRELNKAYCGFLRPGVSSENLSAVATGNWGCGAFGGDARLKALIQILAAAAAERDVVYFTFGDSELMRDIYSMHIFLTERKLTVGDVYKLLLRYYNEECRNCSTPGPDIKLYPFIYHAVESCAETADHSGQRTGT
- assay_notes: PARG in vitro enzyme assay (TR-FRET)
- test_settings: read-out: PARG_EC50_ENZYME
attribute_measured: EC50 (nM)

smiles_code | attribute_measured | obs_value
Cn1c(=O)n(-c2ccc(C=O)s2)c2cc(S(=O)(=O)NC3(C)CC3)ccc21 | EC50 | 9070
Cn1c(=O)n(-c2ncc(/C=C/C(=O)O)s2)c2cc(S(=O)(=O)NC3(C)CC3)ccc21 | EC50 | 3210
Cn1c(=O)n(-c2nnc(C(F)F)s2)c2cc(S(=O)(=O)NC3(CF)CC3)c(F)cc21 | EC50 | 91
Cc1nnc(-n2c(=O)n(C)c3ccc(S(=O)(=O)NC4(C)CC4)cc32)s1 | EC50 | 902

====

- assay_system: PARG in HeLa cell line (Homo sapiens (Human))
- Sequence (Q86W56 whole entry): as above
- assay_notes: PARG cell assay (nuclear PAR chains after MMS, immunofluorescence)
- Assay type: cell-based
- test_settings: HeLa cells, MMS 50 μg/mL; read-out: PARG Cell IC50 Geomean
Doc: threshold 200 nM (exclusive). Items with IC50 beneath it return true (1); others return false (0).

smiles_code | assay_system | class_name
COc1nsc(-n2c(=O)n(Cc3sc(C)nc3C)c3ccc(S(=O)(=O)NC4(C)CC4)cc32)n1 | PARG in HeLa cell line (Homo sapiens (Human)) | false (0)
Cc1nc(C)c(Cn2c(=O)n(-c3ncns3)c3cc(S(=O)(=O)NC4(C)CC4)ccc32)s1 | PARG in HeLa cell line (Homo sapiens (Human)) | true (1)
Cc1ccc(-n2c(=O)n(C)c3cc(F)c(S(=O)(=O)NC4(CF)CC4)cc32)nn1 | PARG in HeLa cell line (Homo sapiens (Human)) | false (0)
Cc1nnc(-n2c(=O)n(CC3CC3)c3ccc(S(=O)(=O)NC4(C)CC4)cc32)s1 | PARG in HeLa cell line (Homo sapiens (Human)) | true (1)
COCCn1c(=O)n(-c2nnc(C)s2)c2cc(S(=O)(=O)NC3(C#N)CC3)ccc21 | PARG in HeLa cell line (Homo sapiens (Human)) | false (0)
CNC(=O)c1noc(Cn2c(=O)n(-c3nnc(C)o3)c3cc(S(=O)(=O)NC4(C)CC4)ccc32)n1 | PARG in HeLa cell line (Homo sapiens (Human)) | false (0)
Cc1ccc(Cn2c(=O)n(-c3nnc(C)s3)c3cc(S(=O)(=O)NC4(C)CC4)ccc32)s1 | PARG in HeLa cell line (Homo sapiens (Human)) | false (0)
CCn1c(=O)n(-c2nnc(C(F)F)o2)c2cc(S(=O)(=O)NC3(C)CC3)c(F)cc21 | PARG in HeLa cell line (Homo sapiens (Human)) | true (1)
Cc1nnc(-n2c(=O)n(CCN(C)C)c3ccc(S(=O)(=O)NC4(CF)CC4)cc32)s1 | PARG in HeLa cell line (Homo sapiens (Human)) | false (0)
Cc1nc(C)c(Cn2c(=O)n(-c3nc(Br)ns3)c3cc(S(=O)(=O)NC4(C)CC4)ccc32)s1 | PARG in HeLa cell line (Homo sapiens (Human)) | true (1)
Cc1nsc(-n2c(=O)n(C)c3ccc(S(=O)(=O)NC4(CF)CC4)cc32)n1 | PARG in HeLa cell line (Homo sapiens (Human)) | false (0)
Cc1nc(C)c(Cn2c(=O)n(-c3nnc(C(F)F)s3)c3cc(S(=O)(=O)NC4(C)CC4)ccc32)s1 | PARG in HeLa cell line (Homo sapiens (Human)) | true (1)
CC1(NS(=O)(=O)c2ccc3c(C(=O)C4CC4)cn(-c4nnc(C(F)F)s4)c3c2)CC1 | PARG in HeLa cell line (Homo sapiens (Human)) | true (1)
CCn1c(=O)n(-c2nnc(C(F)F)o2)c2cc(S(=O)(=O)NC3(CF)CC3)c(F)cc21 | PARG in HeLa cell line (Homo sapiens (Human)) | true (1)
Cc1ncc(Cn2c(=O)n(-c3nnc(C)s3)c3cc(S(=O)(=O)NC4(C)CC4)ccc32)s1 | PARG in HeLa cell line (Homo sapiens (Human)) | true (1)
